Hello, the source for this data is ChEMBL document CHEMBL4715904, in case you need it.

- assay_method_text: Inhibition of recombinant rat FTase expressed in Escherichia coli using 3H-FPP and biotinylated-DESGPGCMSCKCVLS peptide as substrates incubated for 30 mins in presence of 5 mM pyrophosphate by scintillation proximity assay
pIC50: −log10 of the molar value.
endpoint_name: pIC50

P. N#Cc1ccc(Cn2cncc2CN2CCN(c3cccc(Cl)c3)C(=O)C2)cc1 [L-778123 FREE BASE]
Q. Cc1nn(C)c(C)c1C(=O)N1CCN(Cc2nc3ccccc3n2CC(C)(C)C)CC1
Please tell me which of the two, P or Q , has the higher reported pIC50 value. Record your answer as the label of the chosen record.
P
(P: 7.15, Q: 5.60)

---

- measured_on: Mitochondrial inner membrane m-AAA protease component AFG3L2 (Homo sapiens)
- Sequence (Q9Y4W6 whole entry): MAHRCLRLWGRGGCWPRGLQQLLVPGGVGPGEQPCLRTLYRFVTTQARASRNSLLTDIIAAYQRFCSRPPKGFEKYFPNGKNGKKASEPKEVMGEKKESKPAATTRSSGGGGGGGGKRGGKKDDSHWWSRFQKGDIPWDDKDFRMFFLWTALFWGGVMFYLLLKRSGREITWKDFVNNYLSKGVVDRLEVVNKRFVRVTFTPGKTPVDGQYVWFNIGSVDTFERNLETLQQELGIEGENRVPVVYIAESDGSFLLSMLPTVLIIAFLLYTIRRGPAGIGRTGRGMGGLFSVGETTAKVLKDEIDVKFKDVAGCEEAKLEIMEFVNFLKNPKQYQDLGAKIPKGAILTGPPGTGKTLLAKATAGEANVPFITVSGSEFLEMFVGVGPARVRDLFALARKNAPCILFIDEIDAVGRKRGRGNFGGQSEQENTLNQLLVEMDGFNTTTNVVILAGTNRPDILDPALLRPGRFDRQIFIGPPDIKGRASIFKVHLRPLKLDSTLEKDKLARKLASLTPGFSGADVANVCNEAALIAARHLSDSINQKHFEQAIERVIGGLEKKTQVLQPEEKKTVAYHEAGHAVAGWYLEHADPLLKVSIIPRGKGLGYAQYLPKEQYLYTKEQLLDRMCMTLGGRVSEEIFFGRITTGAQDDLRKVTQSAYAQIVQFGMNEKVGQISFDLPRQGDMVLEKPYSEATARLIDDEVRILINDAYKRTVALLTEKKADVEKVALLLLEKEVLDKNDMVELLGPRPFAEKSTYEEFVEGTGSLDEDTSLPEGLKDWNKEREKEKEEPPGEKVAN
- assay_method_text: Displacement of (1-(2-aminoethyl)-3,5-dimethyl-1H-pyrazol-4-yl)(4-((1-neopentyl-1H-benzo[d]imidazol-2-yl)methyl)piperazin-1-yl)methanone from AFG3L2 in vorinostat-stimulated human Jurkat 2C4 cells infected with latent HIV-1 by pull-down experiment based competitive binding assay
endpoint_name: Kd (µM)
Write it as a number; the unit µM goes unstated.

Give Mitochondrial inner membrane m-AAA protease component AFG3L2 (Homo sapiens) Kd for Cc1nn(C)c(C)c1C(=O)N1CCN(Cc2nc3ccccc3n2CC(C)(C)C)CC1
19

---

- measured_on: NmrA-like family domain-containing protein 1 (Homo sapiens, UniProt Q9HBL8)
- Sequence (Q9HBL8 whole entry, the tested form may be a part): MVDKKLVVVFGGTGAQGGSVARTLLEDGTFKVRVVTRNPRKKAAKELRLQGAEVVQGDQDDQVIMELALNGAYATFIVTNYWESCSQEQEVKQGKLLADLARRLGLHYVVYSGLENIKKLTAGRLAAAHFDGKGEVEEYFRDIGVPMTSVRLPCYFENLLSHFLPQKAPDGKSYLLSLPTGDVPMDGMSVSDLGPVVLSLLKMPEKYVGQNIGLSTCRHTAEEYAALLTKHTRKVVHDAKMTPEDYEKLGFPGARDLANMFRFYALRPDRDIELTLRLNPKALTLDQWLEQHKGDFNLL
- assay_method_text: Displacement of (1-(2-aminoethyl)-3,5-dimethyl-1H-pyrazol-4-yl)(4-((1-neopentyl-1H-benzo[d]imidazol-2-yl)methyl)piperazin-1-yl)methanone from NMRAL1 in vorinostat-stimulated human Jurkat 2C4 cells infected with latent HIV-1 by pull-down experiment based competitive binding assay
- Type: tissue-based
endpoint_name: pKd
Note: pKd values are expressed as the negative base-10 logarithm of concentration in M.

Need pKd, item Cc1nn(C)c(C)c1C(=O)N1CCN(Cc2nc3ccccc3n2CC(C)(C)C)CC1
4.72

---

- measured_on: Protein farnesyltransferase/geranylgeranyltransferase type-1 subunit alpha (Homo sapiens, UniProt P49354)
- assay_method_text: Displacement of (1-(2-aminoethyl)-3,5-dimethyl-1H-pyrazol-4-yl)(4-((1-neopentyl-1H-benzo[d]imidazol-2-yl)methyl)piperazin-1-yl)methanone from FNTA in vorinostat-stimulated human Jurkat 2C4 cells infected with latent HIV-1 by pull-down experiment based competitive binding assay
endpoint_name: pKd
Answer as the number alone; pKd is minus log10 of concentration in mol/L.

State the recorded pKd for this entry: Cc1nn(C)c(C)c1C(=O)N1CCN(Cc2nc3ccccc3n2CC(C)(C)C)CC1
6.47

---

- Tested on: Human immunodeficiency virus 1
- assay_method_text: Reactivation of latent HIV-1 infected in human Jurkat 2C4 cells assessed as increase in HIV-1 transcription incubated for 24 hrs by Steady-Glo luciferase reporter gene assay
- Type: functional, organism-based
- settings: Human immunodeficiency virus 1, 2C4, 24 h
endpoint_name: EC50

These solved cases illustrate the format of a correct answer.
[
  {
    "substance_smiles": "CC(=O)NCCn1nc(C)c(C(=O)N2CCN(Cc3nc4ccccc4n3CC(C)(C)C)CC2)c1C",
    "EC50": "> 8 µM"
  },
  {
    "substance_smiles": "CCn1c(CN2CCN(C(=O)c3c(C)nn(C)c3C)CC2)nc2ccccc21",
    "EC50": "> 8 µM"
  }
]

We now examine a further molecule.
Can you look up EC50 on Human immunodeficiency virus 1 for Cc1nn(C)c(C)c1C(=O)N1CCN(Cc2nc3ccccc3n2CC(C)(C)C)CC1 ?
> 8 µM
